Tested Target: human BCL6 BTB domain (Homo sapiens, UniProt P41182)
Assay Text: BCL6 TR-FRET assay
Assay type: binding
Test Conditions: Table S1; read-out: BCL6 TR-FRET IC90 Geometric Mean
Readout Name: log10 of IC90 (log10 of the value in nM)
The figures below represent log10 of IC90, where IC90 is stated in nM.

- Cn1c(=O)c2c(c3cc(Nc4ccnc(Cl)c4F)ccc31)N[C@@H](C1CC1)C(F)(F)CO2: 2.30
- Cn1c(=O)c2c(c3cc(Nc4nc(N5CCC5)ncc4Cl)ccc31)N[C@@H](C1CC1)C(F)(F)CO2: 1.66
- Cn1c(=O)c2c(c3cc(Nc4nc(N5CC6CCC(C5)O6)ncc4Cl)ccc31)N[C@@H](C1CC1)C(F)(F)CO2: 1.30

In: human BCL6 BTB domain (Homo sapiens, UniProt P41182) / log10 of IC90 / Cn1c(=O)c2c(c3cc(Nc4ccnc(Cl)c4Cl)ccc31)N[C@@H](C1CC1)C(F)(F)CO2 : value?
Out: 2.04

In: Hi! What's the reported log10 of IC90 for Cn1c(=O)c2c(c3cc(Nc4nc(N5C6COCC5CC(O)C6)ncc4Cl)ccc31)N[C@@H](C1CC1)C(F)(F)CO2 (stereo partly drawn) on human BCL6 BTB domain (Homo sapiens, UniProt P41182)?
Out: 0.88

In: Quick check: log10 of IC90 on human BCL6 BTB domain (Homo sapiens, UniProt P41182), item Cn1c(=O)c2c(c3cc(Nc4nc(N5CC(F)(F)C5)ncc4Cl)ccc31)N[C@@H](C1CC1)C(F)(F)CO2 ?
Out: 1.93
